System: Escherichia coli TOP10
Experiment: shrunken log2 fold change of peptide-encoding DNA abundance (4.5 h post-induction vs induction); higher = less antimicrobial activity (less host growth inhibition)
Details: time post-induction: 4.5 h; library: site-saturation at positions 5, 18, 19, 20
# shrunken log2 fold change annotations
Observable: shrunken log2 fold change

[[record]]
sequence_data = "RRIRKRPPRLPRPRPRPFGCPRP"
test_target = "Escherichia coli TOP10"
experimental_value = 0.0495

[[record]]
sequence_data = "RRIRPRPPRLPRPRPRPHWFPRP"
test_target = "Escherichia coli TOP10"
experimental_value = 0.0501

[[record]]
sequence_data = "RRIRKRPPRLPRPRPRPPCDPRP"
test_target = "Escherichia coli TOP10"
experimental_value = 0.415

[[record]]
sequence_data = "RRIRGRPPRLPRPRPRPAEVPRP"
test_target = "Escherichia coli TOP10"
experimental_value = 0.31

[[record]]
sequence_data = "RRIRCRPPRLPRPRPRPVQWPRP"
test_target = "Escherichia coli TOP10"
experimental_value = 0.116

[[record]]
sequence_data = "RRIRPRPPRLPRPRPRPRMQPRP"
test_target = "Escherichia coli TOP10"
experimental_value = 1.48

[[record]]
sequence_data = "RRIRFRPPRLPRPRPRPWWQPRP"
test_target = "Escherichia coli TOP10"
experimental_value = -0.0583

[[record]]
sequence_data = "RRIRDRPPRLPRPRPRPVIAPRP"
test_target = "Escherichia coli TOP10"
experimental_value = 0.224

[[record]]
sequence_data = "RRIRERPPRLPRPRPRPMWLPRP"
test_target = "Escherichia coli TOP10"
experimental_value = -0.07

[[record]]
sequence_data = "RRIRNRPPRLPRPRPRPGAPPRP"
test_target = "Escherichia coli TOP10"
experimental_value = 0.492

[[record]]
sequence_data = "RRIRTRPPRLPRPRPRPHYQPRP"
test_target = "Escherichia coli TOP10"
experimental_value = -0.782

[[record]]
sequence_data = "RRIRWRPPRLPRPRPRPFSEPRP"
test_target = "Escherichia coli TOP10"
experimental_value = -0.186

[[record]]
sequence_data = "RRIRHRPPRLPRPRPRPAPEPRP"
test_target = "Escherichia coli TOP10"
experimental_value = 0.0106

[[record]]
sequence_data = "RRIRWRPPRLPRPRPRPLGDPRP"
test_target = "Escherichia coli TOP10"
experimental_value = 0.598

[[record]]
sequence_data = "RRIRSRPPRLPRPRPRPKSEPRP"
test_target = "Escherichia coli TOP10"
experimental_value = 0.0504

[[record]]
sequence_data = "RRIRFRPPRLPRPRPRPHCPPRP"
test_target = "Escherichia coli TOP10"
experimental_value = -0.629


---

Tested on: Escherichia coli TOP10;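 note: peptides expressed intracellularly from a pBAD plasmid library in pooled LB shake-flask culture, induced with 0.3% L-arabinose, DNA abundance read by NGS, three biological replicates, DESeq2 with apeglm shrinkage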
Test: shrunken log2 fold change of peptide-encoding DNA abundance (4.5 h post-induction vs induction); higher = less antimicrobial activity (less host growth inhibition)
Settings: time post-induction: 4.5 h; library: site-saturation at positions 5, 18, 19, 20
# shrunken log2 fold change annotations
Observable: shrunken log2 fold change

[[record]]
sequence_data = "RRIRNRPPRLPRPRPRPKMLPRP"
test_target = "Escherichia coli TOP10"
experimental_value = -0.043

[[record]]
sequence_data = "RRIRRRPPRLPRPRPRPMLSPRP"
test_target = "Escherichia coli TOP10"
experimental_value = 0.00534

[[record]]
sequence_data = "RRIRNRPPRLPRPRPRPQGCPRP"
test_target = "Escherichia coli TOP10"
experimental_value = 0.0942

[[record]]
sequence_data = "RRIRARPPRLPRPRPRPSPTPRP"
test_target = "Escherichia coli TOP10"
experimental_value = 0.328

[[record]]
sequence_data = "RRIRQRPPRLPRPRPRPFIIPRP"
test_target = "Escherichia coli TOP10"
experimental_value = 0.043

[[record]]
sequence_data = "RRIRIRPPRLPRPRPRPEFLPRP"
test_target = "Escherichia coli TOP10"
experimental_value = -0.0199

[[record]]
sequence_data = "RRIRPRPPRLPRPRPRPDAAPRP"
test_target = "Escherichia coli TOP10"
experimental_value = 0.721

[[record]]
sequence_data = "RRIRQRPPRLPRPRPRPSMTPRP"
test_target = "Escherichia coli TOP10"
experimental_value = -0.285

[[record]]
sequence_data = "RRIRQRPPRLPRPRPRPADAPRP"
test_target = "Escherichia coli TOP10"
experimental_value = 0.242

[[record]]
sequence_data = "RRIRTRPPRLPRPRPRPVPNPRP"
test_target = "Escherichia coli TOP10"
experimental_value = 0.123

[[record]]
sequence_data = "RRIRTRPPRLPRPRPRPWPTPRP"
test_target = "Escherichia coli TOP10"
experimental_value = 0.371

